protocol: Cmax in naive naive Sprague-Dawley rat at 0.3 mg/kg, ip by LC/MS/MS analysis
Assay type: ADME, organism-based
Design: dose 0.3 mg/kg, route intraperitoneal
measurementConditions: in vivo
propertyName: Cmax (ng/mL)

[[record]]
substancesmiles = "CCCc1ccc(/C=C2\\C=C(CCN3CCOCC3)c3ccccc32)c2ccccc12"
assayvalue = 11.9


* * *

protocol: Ratio of drug level in brain to plasma in naive Sprague-Dawley rat at 0.3 mg/kg, ip after 75 mins
Type: ADME, organism-based
measurementConditions: read-out: BPR
propertyName: Kp at 1.25 h

[[record]]
substancesmiles = "CCCc1ccc(/C=C2\\C=C(CCN3CCOCC3)c3ccccc32)c2ccccc12"
assayvalue = 0.182


* * *

measurementTarget: Cannabinoid receptor 1 (Rattus norvegicus)
Sequence (P20272 whole entry): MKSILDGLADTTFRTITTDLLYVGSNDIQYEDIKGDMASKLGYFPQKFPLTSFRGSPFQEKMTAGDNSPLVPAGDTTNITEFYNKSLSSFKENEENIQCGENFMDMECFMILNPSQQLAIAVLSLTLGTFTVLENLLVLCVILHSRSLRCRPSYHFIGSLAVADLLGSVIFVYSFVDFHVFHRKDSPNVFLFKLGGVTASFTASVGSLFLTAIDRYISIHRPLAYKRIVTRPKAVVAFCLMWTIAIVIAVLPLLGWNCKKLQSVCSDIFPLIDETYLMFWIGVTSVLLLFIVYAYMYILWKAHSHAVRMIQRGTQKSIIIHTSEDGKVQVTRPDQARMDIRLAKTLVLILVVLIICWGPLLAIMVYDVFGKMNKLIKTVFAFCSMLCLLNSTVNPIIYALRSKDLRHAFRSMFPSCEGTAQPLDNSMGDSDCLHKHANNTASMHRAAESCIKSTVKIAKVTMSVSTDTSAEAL
propertyName: Ki (nM)

[[record]]
substancesmiles = "COc1ccc(C(=O)c2c(C)n(CCN3CCOCC3)c3ccccc23)cc1"
assayvalue = 2510


* * *

measurementTarget: Cannabinoid receptor 2 (Homo sapiens, UniProt P34972)
Sequence (P34972 whole entry): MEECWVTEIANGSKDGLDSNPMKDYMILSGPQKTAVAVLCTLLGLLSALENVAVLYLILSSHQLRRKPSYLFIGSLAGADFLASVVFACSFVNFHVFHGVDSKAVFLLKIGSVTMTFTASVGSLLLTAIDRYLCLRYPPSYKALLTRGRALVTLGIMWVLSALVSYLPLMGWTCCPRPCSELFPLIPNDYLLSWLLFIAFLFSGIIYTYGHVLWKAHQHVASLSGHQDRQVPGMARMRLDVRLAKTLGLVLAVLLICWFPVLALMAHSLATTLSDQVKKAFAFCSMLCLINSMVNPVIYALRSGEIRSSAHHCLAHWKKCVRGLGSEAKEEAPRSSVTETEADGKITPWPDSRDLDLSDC
protocol: Agonist activity at human CB2R expressed in CHO cells by Ca2+ flux assay
pEC50: −log10 of the molar value.
propertyName: pEC50

[[record]]
substancesmiles = "COc1ccc(/C=C2\\C=C(CCN3CCOCC3)c3ccccc32)c2ccccc12"
measurementtarget = "Cannabinoid receptor 2 (Homo sapiens, UniProt P34972)"
propertyname = "pEC50"
assayvalue = 6.71

[[record]]
substancesmiles = "CCCc1ccc(/C=C2\\C=C(CCN3CCOCC3)c3ccccc32)c2ccccc12"
measurementtarget = "Cannabinoid receptor 2 (Homo sapiens, UniProt P34972)"
propertyname = "pEC50"
assayvalue = 7.03

[[record]]
substancesmiles = "C1=C(CCN2CCOCC2)c2ccccc2/C1=C/c1ccc2c3c(cccc13)CC2"
measurementtarget = "Cannabinoid receptor 2 (Homo sapiens, UniProt P34972)"
propertyname = "pEC50"
assayvalue = 6.23

[[record]]
substancesmiles = "CCc1ccc(/C=C2\\C=C(CCN3CCOCC3)c3ccccc32)c2ccccc12"
measurementtarget = "Cannabinoid receptor 2 (Homo sapiens, UniProt P34972)"
propertyname = "pEC50"
assayvalue = 6.79

[[record]]
substancesmiles = "C1=C(CCN2CCOCC2)c2ccccc2/C1=C/c1cccc2ccccc12"
measurementtarget = "Cannabinoid receptor 2 (Homo sapiens, UniProt P34972)"
propertyname = "pEC50"
assayvalue = 6.86


* * *

protocol: AUC in naive Sprague-Dawley rat at 0.3 mg/kg, ip by LC/MS/MS analysis
Type: ADME, organism-based
measurementConditions: in vivo
propertyName: AUC (ng·h/mL)

[[record]]
substancesmiles = "CCCc1ccc(/C=C2\\C=C(CCN3CCOCC3)c3ccccc32)c2ccccc12"
propertyname = "AUC"
assayvalue = 112


* * *

measurementTarget: Cannabinoid receptor 1 (Homo sapiens)
propertyName: Ki

[[record]]
substancesmiles = "CCCCCCC1=C/C(=C\\c2ccccc2)c2ccccc21"
measurementtarget = "Cannabinoid receptor 1 (Homo sapiens)"
assayvalue = "4.41 µM"

[[record]]
substancesmiles = "O=C(O)CCCCn1cc(C(=O)c2cccc3ccccc23)c2ccccc21"
measurementtarget = "Cannabinoid receptor 1 (Homo sapiens)"
assayvalue = "> 10 µM"

[[record]]
substancesmiles = "CCCCCn1cc(C(=O)c2ccc(C(=O)O)c3ccccc23)c2ccccc21"
measurementtarget = "Cannabinoid receptor 1 (Homo sapiens)"
assayvalue = "> 10 µM"

[[record]]
substancesmiles = "C[N+]1(CCn2cc(C(=O)c3cccc4ccccc34)c3ccccc32)CCOCC1"
measurementtarget = "Cannabinoid receptor 1 (Homo sapiens)"
assayvalue = "> 10 µM"

[[record]]
substancesmiles = "CCCCCCC1=C/C(=C\\c2cccc3ccccc23)c2ccccc21"
measurementtarget = "Cannabinoid receptor 1 (Homo sapiens)"
assayvalue = "0.436 µM"

[[record]]
substancesmiles = "O=C(O)CCCn1cc(C(=O)c2cccc3ccccc23)c2ccccc21"
measurementtarget = "Cannabinoid receptor 1 (Homo sapiens)"
assayvalue = "> 10 µM"

[[record]]
substancesmiles = "C1=C(CCN2CCOCC2)c2ccccc2/C1=C/c1ccco1"
measurementtarget = "Cannabinoid receptor 1 (Homo sapiens)"
assayvalue = "> 10 µM"

[[record]]
substancesmiles = "COc1ccc(C(=O)c2c(C)n(CC[N+]3(C)CCOCC3)c3ccccc23)cc1"
measurementtarget = "Cannabinoid receptor 1 (Homo sapiens)"
assayvalue = "> 10 µM"


* * *

// values below are reported Stability
protocol: Metabolic stability in Sprague-Dawley rat liver S9 fraction assessed as compound remaining at 10 uM measured at 1 hr by LC/MS analysis
Format: ADME, subcellular
measurementConditions: s9, 1 h
propertyName: Stability

[[record]]
substancesmiles = "CCCCCn1cc(C(=O)c2cccc3ccccc23)c2ccc(F)cc21"
propertyname = "Stability"
assayvalue = "30%"

[[record]]
substancesmiles = "CCCCCn1cc(C(=O)c2cccc3ccccc23)c2cc(F)ccc21"
propertyname = "Stability"
assayvalue = "13%"

[[record]]
substancesmiles = "CCCCCn1cc(C(=O)c2cccc3ccccc23)c2c(F)cccc21"
propertyname = "Stability"
assayvalue = "5%"

[[record]]
substancesmiles = "CCCc1ccc(/C=C2\\C=C(CCN3CCOCC3)c3ccccc32)c2ccccc12"
propertyname = "Stability"
assayvalue = "37%"

[[record]]
substancesmiles = "COc1ccc(/C=C2\\C=C(CCN3CCOCC3)c3ccccc32)c2ccccc12"
propertyname = "Stability"
assayvalue = "43%"

[[record]]
substancesmiles = "C1=C(CCN2CCOCC2)c2ccccc2/C1=C/c1cccc2ccccc12"
propertyname = "Stability"
assayvalue = "22.5%"

[[record]]
substancesmiles = "CCCCCn1cc(C(=O)c2cccc3ccccc23)c2cccc(F)c21"
propertyname = "Stability"
assayvalue = "50%"


* * *

protocol: Metabolic stability in Sprague-Dawley rat plasma assessed as compound remaining at 10 uM measured at 1 hr by LC/MS analysis
Format: ADME, cell-free
// values below are reported Stability
propertyName: Stability (%)

[[record]]
substancesmiles = "CCCCCn1cc(C(=O)c2cccc3ccccc23)c2cccc(F)c21"
propertyname = "Stability"
assayvalue = 97

[[record]]
substancesmiles = "CCCCCn1cc(C(=O)c2cccc3ccccc23)c2c(F)cccc21"
propertyname = "Stability"
assayvalue = 69

[[record]]
substancesmiles = "C1=C(CCN2CCOCC2)c2ccccc2/C1=C/c1cccc2ccccc12"
propertyname = "Stability"
assayvalue = 98.5

[[record]]
substancesmiles = "COc1ccc(/C=C2\\C=C(CCN3CCOCC3)c3ccccc32)c2ccccc12"
propertyname = "Stability"
assayvalue = 100

[[record]]
substancesmiles = "CCCCCn1cc(C(=O)c2cccc3ccccc23)c2ccc(F)cc21"
propertyname = "Stability"
assayvalue = 80

[[record]]
substancesmiles = "CCCc1ccc(/C=C2\\C=C(CCN3CCOCC3)c3ccccc32)c2ccccc12"
propertyname = "Stability"
assayvalue = 92

[[record]]
substancesmiles = "CCCCCn1cc(C(=O)c2cccc3ccccc23)c2cc(F)ccc21"
propertyname = "Stability"
assayvalue = 99


* * *

measurementTarget: UniProt P21554
protocol: Agonist activity at human CB1R expressed in CHO cells by Ca2+ flux assay
// values below are reported EC50
propertyName: EC50 (nM)

[[record]]
substancesmiles = "CCCCCn1cc(C(=O)c2cccc3ccccc23)c2cccc(F)c21"
quantityunit = "nM"
assayvalue = 104

[[record]]
substancesmiles = "CCCc1ccc(/C=C2\\C=C(CCN3CCOCC3)c3ccccc32)c2ccccc12"
quantityunit = "nM"
assayvalue = 182

[[record]]
substancesmiles = "COc1ccc(/C=C2\\C=C(CCN3CCOCC3)c3ccccc32)c2ccccc12"
quantityunit = "nM"
assayvalue = 196

[[record]]
substancesmiles = "CCc1ccc(/C=C2\\C=C(CCN3CCOCC3)c3ccccc32)c2ccccc12"
quantityunit = "nM"
assayvalue = 141

[[record]]
substancesmiles = "C1=C(CCN2CCOCC2)c2ccccc2/C1=C/c1cccc2ccccc12"
quantityunit = "nM"
assayvalue = 257


* * *

// values below are reported Emax
measurementTarget: Cannabinoid receptor 1 (Homo sapiens, UniProt P21554)
Sequence (P21554 whole entry): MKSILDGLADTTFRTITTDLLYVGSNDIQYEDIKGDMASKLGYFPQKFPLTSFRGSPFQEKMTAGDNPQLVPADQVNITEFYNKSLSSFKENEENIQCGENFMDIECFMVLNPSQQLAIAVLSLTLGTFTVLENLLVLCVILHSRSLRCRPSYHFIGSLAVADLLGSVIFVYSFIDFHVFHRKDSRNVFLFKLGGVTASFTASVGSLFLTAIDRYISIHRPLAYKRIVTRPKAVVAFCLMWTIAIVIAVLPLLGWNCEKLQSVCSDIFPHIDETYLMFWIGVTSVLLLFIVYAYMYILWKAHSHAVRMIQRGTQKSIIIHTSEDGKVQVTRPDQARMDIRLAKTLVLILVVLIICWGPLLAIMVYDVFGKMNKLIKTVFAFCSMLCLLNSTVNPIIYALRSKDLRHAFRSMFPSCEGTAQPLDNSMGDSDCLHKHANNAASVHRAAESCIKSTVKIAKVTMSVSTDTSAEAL
protocol: Agonist activity at human CB1R expressed in CHO cells by Ca2+ flux assay
Format: functional, cell-based
propertyName: Emax (%)

[[record]]
substancesmiles = "CCc1ccc(/C=C2\\C=C(CCN3CCOCC3)c3ccccc32)c2ccccc12"
measurementtarget = "Cannabinoid receptor 1 (Homo sapiens, UniProt P21554)"
assayvalue = 121

[[record]]
substancesmiles = "CCCCCn1cc(C(=O)c2cccc3ccccc23)c2cccc(F)c21"
measurementtarget = "Cannabinoid receptor 1 (Homo sapiens, UniProt P21554)"
assayvalue = 79

[[record]]
substancesmiles = "C1=C(CCN2CCOCC2)c2ccccc2/C1=C/c1cccc2ccccc12"
measurementtarget = "Cannabinoid receptor 1 (Homo sapiens, UniProt P21554)"
assayvalue = 103

[[record]]
substancesmiles = "CCCc1ccc(/C=C2\\C=C(CCN3CCOCC3)c3ccccc32)c2ccccc12"
measurementtarget = "Cannabinoid receptor 1 (Homo sapiens, UniProt P21554)"
assayvalue = 108

[[record]]
substancesmiles = "COc1ccc(/C=C2\\C=C(CCN3CCOCC3)c3ccccc32)c2ccccc12"
measurementtarget = "Cannabinoid receptor 1 (Homo sapiens, UniProt P21554)"
assayvalue = 114

